test system: HeLa cells; assay: Cell cycle assay in HeLa cells; type: cell-based, human; conditions: HeLa cells, 150 nM oligomeric compound, 24 hours, relative to untreated control (UTC = 100)
In the oligonucleotide strings, read from the 5' end, every base follows the letter of its sugar. An asterisk marks phosphorothioate; unmarked linkages are phosphodiester. Other units and linkages are bracketed, terminal groups are in braces. A string of capitals states the bases alone. e = 2'-O-(2-methoxyethyl) (MOE); [5mC] = 5-methylcytosine; d = 2'-deoxy (DNA)
endpoint: % cells aneuploid (%)
Your answer is read as %, so omit the unit and give the number.

Worked cases, % cells aneuploid given:
328362 (eT*eG*eT*eG*eT*dT*dT*dT*d[5mC]*dT*dG*dA*d[5mC]*dT*d[5mC]*eA*eG*eT*e[5mC]*eA) [compound 328362]    66
341787 (antisense CACAGGTTAAAGGGTCTCAGGGA; all 2'-MOE, all phosphorothioate, methylation of C not given here) [compound 341787]    165
338637 (antisense TCAGAGCGGAGAGACACAAG; all 2'-MOE, all phosphorothioate, methylation of C not given here) [compound 338637]    188
328644 (eG*eA*e[5mC]*eA*eA*dG*dG*dT*dG*dG*dG*dA*dG*d[5mC]*dG*eA*eG*eT*eG*eG; antisense) [compound 328644]    68
327922 (antisense eT*e[5mC]*eA*eG*eT*eT*eT*eT*eG*e[5mC]*eA*eT*eG*eG*eA*eT*eT*eT*eG*e[5mC]*eA*e[5mC]*eA) [compound 327922]    104

Please look at the following substance next.
Query :: Missing value: % cells aneuploid, HeLa cells, entry 327885 (antisense eA*e[5mC]*eT*eA*e[5mC]*e[5mC]*eT*eG*e[5mC]*eA*e[5mC]*eT*eG*eT*eA*eA*eG*e[5mC]*eA*e[5mC]*eT*eT*eT*eG) [compound 327885] . Fill in?
Result :: 55

====

tested on: aP2; experiment: aP2 mRNA expression in adipocytes (real-time PCR); format: cell-based, human; conditions: differentiating adipocytes transfected with oligomeric compound; Table 75
In the oligonucleotide strings, read from the 5' end, every base follows the letter of its sugar. An asterisk marks phosphorothioate; unmarked linkages are phosphodiester. Other units and linkages are bracketed, terminal groups are in braces. A string of capitals states the bases alone. e = 2'-O-(2-methoxyethyl) (MOE); [5mC] = 5-methylcytosine
In this section we review reported aP2 mRNA values for a set of substances.

Worked cases, aP2 mRNA given:
344343 (AUGCCCUUUCAUCAUUGCACUG; anti-miR; all 2'-MOE, all phosphorothioate, methylation of C and T or U not given here) [compound 344343]    25 percentage of untreated control (UTC)
328097 (antisense eT*eG*eT*e[5mC]*eA*eG*eA*eT*eA*eA*eA*e[5mC]*eA*eG*eA*eG*eT*eG*eG*eA*eA) [compound 328097]    48 percentage of untreated control (UTC)
340356 (antisense CUCAAUAGACUGUGAGCUCCUU; all 2'-MOE, all phosphorothioate, methylation of C and T or U not given here) [compound 340356]    73 percentage of untreated control (UTC)

Please look at the following substance next.
Query :: Record request: aP2 mRNA value, item 328091 (antisense eG*e[5mC]*eT*eG*e[5mC]*e[5mC]*eG*eT*eA*eT*eA*eT*eG*eT*eG*eA*eT*eG*eT*e[5mC]*eA) [compound 328091]
Result :: 46 percentage of untreated control (UTC)
